All figures here come from ChEMBL document CHEMBL1201862.

Test system: SN12C
test: NCI tumour cell line growth inhibition, 48 h
The source made the active and inactive calls. No stated cut-off is given here; in the data, active = GI50 up to about 1.1 µM and inactive = higher.
parameter: GI50

>>> datavalue("COc1c(N2CCCCC2)c2c(=O)c3ccccc3oc2c2c3ccccc3n(C)c12")
"47.6 µM (inactive)"
>>> datavalue("CCOC(=O)/C(=C/c1ccc(C(=O)OC)cc1)N(CC)CC")
"70.8 µM (inactive)"
>>> datavalue("COC(=O)C(=O)C(C(=O)C(=O)Nc1ccc(OC)cc1[N+](=O)[O-])c1nc2ccc([N+](=O)[O-])cc2nc1O (stereo unspecified)")
"> 100 µM (inactive)"
>>> datavalue("N=C(N)NCCCC(NCc1c2ccccc2nc2ccccc12)C(=O)O (stereo unspecified)")
"39.2 µM (inactive)"
>>> datavalue("Fc1ccc(C2SCc3nc4ccccc4n32)cc1F (stereo unspecified)")
"41.7 µM (inactive)"
>>> datavalue("CC/C(=N/O)c1ccc2[nH]c3c(C)cc([N+](=O)[O-])c(C)c3c2c1")
"76.2 µM (inactive)"
>>> datavalue("[N-]=[N+]=NCC(O)Cn1cnc2c(NC(=O)c3ccccc3)ncnc21 (stereo unspecified)")
"> 100 µM (inactive)"
>>> datavalue("CCOC(=O)C(C(=O)c1ccccc1C(=O)OC)=P(c1ccccc1)(c1ccccc1)c1ccccc1")
"> 10 µM (inactive)"
>>> datavalue("CCCC(=O)N[C@@H](Cc1cc(I)c(O)c(I)c1)C(=O)NCCCNCCCCNCCCNC(=O)[C@@H](N)CCCN=C(N)N")
"> 100 µM (inactive)"
>>> datavalue("O=C1C(Nc2ccc(S(=O)(=O)Nc3cnc4ccccc4n3)cc2)=C/C(=N\\c2ccc(S(=O)(=O)Nc3cnc4ccccc4n3)cc2)c2ccccc21")
"16.7 µM (inactive)"
>>> datavalue("CC(C)(C)OC(=O)N[C@H]1CC2(C=C(Cl)C(=O)C(Cl)=C2)OC1=O")
"18.5 µM (inactive)"
>>> datavalue("Cc1c(C)c(C)c(-n2c(=O)n(C)c(=O)n2-n2c(=O)n(C)c(=O)n2-c2c(C)c(C)c(C)c(C)c2C)c(C)c1C")
"> 100 µM (inactive)"
>>> datavalue("COc1cc2c(/C=C3/C(=O)N(C)c4ccc(O)cc43)c(Cl)[nH]c2cc1C")
"0.776 µM (active)"
>>> datavalue("O=C1CCCC/C1=C1/SC(=N/c2ccccc2)/C(=N\\c2ccccc2)N1c1ccccc1")
"> 100 µM (inactive)"
>>> datavalue("O=C(CC(=O)c1cccc([N+](=O)[O-])c1)C(=O)Nc1ccccc1")
"> 100 µM (inactive)"
>>> datavalue("CC1=NN(C(=O)CSc2nc3ccc(I)cc3c(=O)n2Cc2ccccc2)C(=O)C1")
"29.3 µM (inactive)"

###

Listing: GI50 of selected compounds
Tested on: HOP-62
test: NCI tumour cell line growth inhibition, 48 h
Calls of active or inactive are those of the source. Rule as the data show it: active = GI50 up to about 1.1 µM and inactive = higher.
parameter: GI50

>>> datavalue("CCN(CC)/[N+]([O-])=N/O")
"> 100 µM (inactive)"
>>> datavalue("COc1cccc(OCC(=N/NC(=O)c2ccncc2)/N=C/c2cccnc2)c1")
"> 100 µM (inactive)"
>>> datavalue("CN(C)C(=O)Oc1c(Br)cc(Br)cc1C(=O)OCc1ccccc1")
"28.2 µM (inactive)"
>>> datavalue("COc1ccc(S(=O)(=O)c2nnc(S(=O)(=O)Cc3ccccc3)s2)cc1")
"30.3 µM (inactive)"
>>> datavalue("CSC1SCC2C(=O)N(C)C(C(C)C)C(=O)OCC(NC(=O)c3cnc4ccccc4n3)C(=O)NC(C)C(=O)N(C)C1C(=O)N(C)C(C(C)C)C(=O)OCC(NC(=O)c1cnc3ccccc3n1)C(=O)NC(C)C(=O)N2C (configuration not stated)")
"0.0075 µM (active)"
>>> datavalue("C=CCO/N=C/c1cc(/N=C(/S)c2ccoc2C)ccc1Cl")
"14.4 µM (inactive)"
>>> datavalue("CCOc1ccc(NC(=O)CC2SC(Nc3ccc(C)cc3)=NC2=O)cc1 (configuration not stated)")
"> 100 µM (inactive)"
>>> datavalue("NCCCN(CCCN(C(=O)Nc1ccccc1)c1ccccc1)C(=O)Nc1ccccc1")
"25.1 µM (inactive)"
>>> datavalue("O=C(CSC1=NC(=O)C2(NN1)c1ccccc1-c1ccccc12)NC(=S)Nc1ccccc1")
"> 10 µM (inactive)"
>>> datavalue("CC(=O)OCC1(C)C(O)CCC2(C)C1CCC1CC3CC12CCC3(O)CO (configuration not stated)")
"36.5 µM (inactive)"
>>> datavalue("C=C1C(=O)O[C@@H]2O[C@@]3(C)CC[C@H]4[C@H](C)CC[C@@H]1[C@@]24O3")
"49.5 µM (inactive)"
>>> datavalue("CCCSS[C@H]1NC(=O)[C@H]1NC(=O)COc1ccccc1")
"> 100 µM (inactive)"
>>> datavalue("O=C(NOC(=O)c1ccc([N+](=O)[O-])cc1)c1ccc(Cl)cc1")
"> 100 µM (inactive)"
>>> datavalue("COC(=O)C(=O)C(C(=O)C(=O)Nc1ccc(F)cc1)c1nc2ccc([N+](=O)[O-])cc2nc1O (configuration not stated)")
"> 100 µM (inactive)"
>>> datavalue("COc1ccc(/C=C2\\CCC/C(=C\\c3ccc(O)c(CN4CCCCC4)c3)C2=O)cc1")
"12.4 µM (inactive)"
>>> datavalue("CCOC(=O)NC1C2CC(=O)OC(O2)C1OC(C)=O (configuration not stated)")
"> 100 µM (inactive)"
>>> datavalue("O=C(NC(=S)Nc1ccc(Br)cc1)c1ccc2c(c1)Sc1ccccc1O2")
"79.8 µM (inactive)"
